Items are presented alongside their recorded pEC50.
target: 5-HT2B (Homo sapiens (Human)); assay: 5-HT2B Gq-mediated calcium flux functional assay; type: cell-based
Sequence (P41595 whole entry): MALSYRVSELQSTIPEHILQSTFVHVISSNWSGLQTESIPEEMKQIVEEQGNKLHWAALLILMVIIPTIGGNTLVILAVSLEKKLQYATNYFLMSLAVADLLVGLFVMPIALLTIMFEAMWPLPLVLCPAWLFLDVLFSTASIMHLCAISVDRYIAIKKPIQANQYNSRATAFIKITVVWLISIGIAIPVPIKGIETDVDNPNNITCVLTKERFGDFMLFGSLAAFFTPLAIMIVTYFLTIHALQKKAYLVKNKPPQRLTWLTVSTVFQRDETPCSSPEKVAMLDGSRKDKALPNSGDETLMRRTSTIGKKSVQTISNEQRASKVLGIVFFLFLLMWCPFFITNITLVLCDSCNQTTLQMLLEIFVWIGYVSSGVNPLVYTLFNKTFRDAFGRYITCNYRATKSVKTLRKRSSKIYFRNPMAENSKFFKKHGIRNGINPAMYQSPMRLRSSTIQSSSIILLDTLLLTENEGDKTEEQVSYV
pEC50: −log10 of the molar value.
reported metric: pEC50

>>> recorded_number("CCN(C)CCc1c[nH]c2c(F)cc(OC)cc12")
8.25
>>> recorded_number("Fc1ccc2[nH]cc(CCN(C3CCC3)C3CC3)c2c1")
7.75
>>> recorded_number("C=CC(C)N(C)CCc1c[nH]c2ccc(F)cc12 (stereo not shown)")
8.26
>>> recorded_number("C#CCN(CCC)CCc1c[nH]c2c(F)cccc12")
7.42
>>> recorded_number("CCC(C)N(CC)CCc1c[nH]c2ccc(F)cc12 (stereo not shown)")
8.46
>>> recorded_number("CCCN(CCC)CCc1c[nH]c2ccc(F)cc12")
9.12
>>> recorded_number("CCC(C)N(C)CCc1c[nH]c2ccc(F)cc12 (stereo not shown)")
8.04
>>> recorded_number("CCN(C)CCc1c[nH]c2c(F)c(F)c(F)cc12")
8.21
>>> recorded_number("CCCN(CC)CCc1c[nH]c2cc(F)c(F)cc12")
8.77
>>> recorded_number("CCN(C)CCc1c[nH]c2ccc(F)cc12")
8.64
>>> recorded_number("CCCN(C)CCc1c[nH]c2ccc(F)cc12")
8.58
>>> recorded_number("C=CCN(CCc1c[nH]c2ccc(F)cc12)C(C)C")
9.10
>>> recorded_number("CC(C)N(CCc1c[nH]c2ccc(F)cc12)C1CCC1")
8.96
>>> recorded_number("CN1CCC[C@@H]1Cc1c[nH]c2ccc(F)cc12")
9.14
>>> recorded_number("C#CCN(CCc1c[nH]c2ccc(F)cc12)C(C)CC (stereo not shown)")
7.54
>>> recorded_number("C=CCN(CCc1c[nH]c2ccc(F)cc12)C(C)CC (stereo not shown)")
8.68
>>> recorded_number("CC(C)N(C)CCc1c[nH]c2ccc(F)cc12")
8.48
>>> recorded_number("CCN(CCc1c[nH]c2ccc(F)cc12)C1CCC1")
8.60
>>> recorded_number("CCCN(CCc1c[nH]c2ccc(F)cc12)C1CCC1")
9.23
>>> recorded_number("CCCN(CC)CCc1c[nH]c2c(F)c(F)c(F)cc12")
8.13
>>> recorded_number("CCCN(CC)CCc1c[nH]c2c(F)c(F)ccc12")
7.18
>>> recorded_number("CCC(C)N(CCc1c[nH]c2ccc(F)cc12)C(C)C (stereo not shown)")
9.02
